System: NCI/ADR-RES ovarian
Assay: NCI-60 one-dose screen, 48 h
Conditions: 10 µM unless noted
About 83,000 compounds went through this panel and 20% of them were active in at least one assay; those are over-represented in the sample as a whole. Active and inactive are the calls of the source. Rule for the calls: active = growth percent below 10; inactive = the rest.
Just give me one of these, please: active, inactive

COMPOUND	GROUP LABEL
Cc1ccc(-c2nnc(SCc3nc(N)nc(Nc4ccccc4F)n3)n2-c2ccccc2)cc1	inactive

Dear all, I need the recorded test outcome for O=C(Nc1ccc(Oc2cccc(F)c2)c(Cl)c1)c1cnccn1 , thank you.
active

Dear all, I need the recorded test outcome for NS(=O)(=O)Oc1cccc(-c2nc3sccn3c2-c2ccccc2)c1 , thank you.
inactive

Dear all, I need the recorded test outcome for COc1ccc(-c2nc3cc(C(=O)NC4CCCCC4)ccc3n2C2CCCCC2)cc1 , thank you.
inactive

Dear all, I need the recorded test outcome for Cc1c(-c2cnc3ccc(Cl)cc3c2C(=O)O)nnn1-c1ccc(Cl)cc1 , thank you.
inactive

Dear all, I need the recorded test outcome for COc1cc(/C=C2\CN(S(=O)(=O)c3ccc(C)cc3)C/C(=C\c3cc(CN4CCCC4)c(O)c(OC)c3)C2=O)cc(CN2CCCC2)c1O , thank you.
inactive

Dear all, I need the recorded test outcome for C=C(CNCCO)[C@@H]1CC[C@]2(CO)CC[C@]3(C)[C@H](CC[C@@H]4[C@@]5(C)CCC(NCCO)C(C)(C)[C@@H]5CC[C@]43C)[C@@H]12 (stereo partly drawn) , thank you.
inactive

Dear all, I need the recorded test outcome for CCN(CC)CCCNC(=O)c1c2c(n3ccccc13)C(=O)c1ncccc1C2=O , thank you.
active

Dear all, I need the recorded test outcome for C#CCOc1ccc(C2=NN(CCCC)C3N=C(Cl)c4ncn(CCCC)c4N23)cc1OCC#C (stereo not drawn) , thank you.
inactive

Dear all, I need the recorded test outcome for CC(=O)[C@H]1CC[C@]2(C)[C@@H]1CC[C@@H]1[C@@]3(C)C/C(=C/c4cccnc4)C(=O)C(C)(C)[C@@H]3CC[C@]12C , thank you.
inactive

Dear all, I need the recorded test outcome for CN1CCN(Cc2ccc(NC(=O)c3cncc(C#Cc4c(N)ncc5c(F)cccc45)c3)cc2C(F)(F)F)CC1 , thank you.
active

Dear all, I need the recorded test outcome for COc1ccccc1-c1nc2ccc3[nH]ncc3c2c2c1CCCC2 , thank you.
inactive

Dear all, I need the recorded test outcome for O=c1oc2ccccc2cc1-c1nn(-c2ccccc2)cc1/C=N/Nc1nc(-c2ccccc2)c(N=Nc2ccccc2)s1 , thank you.
inactive

Dear all, I need the recorded test outcome for COc1ccc(-c2cc(-c3ccc(Cl)cc3)c(C#N)c(=O)n2CCCCC(=O)NO)cc1 , thank you.
inactive

Dear all, I need the recorded test outcome for CCOC(=O)c1c2c(n3ccc(NC(=O)CCN4CCCC4)cc13)C(=O)c1ncccc1C2=O , thank you.
inactive

Dear all, I need the recorded test outcome for CCN(CC)CCN1C(=O)c2c(c(C)c3c(oc4cc(OC)ccc43)c2C)C1=O , thank you.
inactive

Dear all, I need the recorded test outcome for Nc1ncc(-c2ccc3ncnc(N4CCc5cc(F)c(Cl)cc54)c3c2)cc1C=O , thank you.
inactive

Dear all, I need the recorded test outcome for CCCS(=O)(=O)Nc1cccc(Nc2ncnc3cc(NC(=O)CCl)ccc23)c1Cl , thank you.
inactive

FYI, the data here is from PubChem BioAssay (NCI).
